Assay Target: T1, Recombinant Human TNF-α/TNFSF1A (human, UniProt P01375 77-233)
T1 construct: also called hTNF-α; huTNFα
T1 sequence (P01375 77-233 limits assumed): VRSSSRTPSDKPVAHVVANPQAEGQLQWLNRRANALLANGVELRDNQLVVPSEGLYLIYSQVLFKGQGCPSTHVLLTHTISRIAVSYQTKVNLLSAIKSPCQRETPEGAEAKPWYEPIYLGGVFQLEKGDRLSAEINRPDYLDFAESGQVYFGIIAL
Assay: SPR (BIACORE), antibody captured, TNFα in solution
Form field: kon (one value per entry).
Number in M⁻¹ s⁻¹, nothing else.

Worked examples follow.
AB385 (antibody, V domains shown, Full-length humanized antibody made in HEK 293-6E; also called hMAK199VH.2b/hMAK199VL.2a) VH: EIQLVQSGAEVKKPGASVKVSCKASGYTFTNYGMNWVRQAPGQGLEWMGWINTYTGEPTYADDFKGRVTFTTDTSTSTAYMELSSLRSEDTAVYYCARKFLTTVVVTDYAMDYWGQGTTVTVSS VL: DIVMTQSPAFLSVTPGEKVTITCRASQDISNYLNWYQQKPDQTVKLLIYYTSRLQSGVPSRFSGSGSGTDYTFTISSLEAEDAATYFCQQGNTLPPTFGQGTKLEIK; 880000
AB360 (antibody, V domains shown, Full-length humanized antibody made in HEK 293-6E; also called hMAK199VH.1a/hMAK199VL.2) VH: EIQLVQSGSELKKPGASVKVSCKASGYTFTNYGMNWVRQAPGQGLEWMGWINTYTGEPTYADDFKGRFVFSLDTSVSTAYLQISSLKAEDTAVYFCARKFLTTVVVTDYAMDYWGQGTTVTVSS VL: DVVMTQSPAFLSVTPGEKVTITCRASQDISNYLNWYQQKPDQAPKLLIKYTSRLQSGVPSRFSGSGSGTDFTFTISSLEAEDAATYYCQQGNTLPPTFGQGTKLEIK; 1.2e+06
AB359 (antibody, V domains shown, Full-length humanized antibody made in HEK 293-6E; also called hMAK199VH.1a/hMAK199VL.1b) VH: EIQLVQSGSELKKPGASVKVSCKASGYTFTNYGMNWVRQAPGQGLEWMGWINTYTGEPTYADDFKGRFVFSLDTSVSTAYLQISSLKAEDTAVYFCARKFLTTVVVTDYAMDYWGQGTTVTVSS VL: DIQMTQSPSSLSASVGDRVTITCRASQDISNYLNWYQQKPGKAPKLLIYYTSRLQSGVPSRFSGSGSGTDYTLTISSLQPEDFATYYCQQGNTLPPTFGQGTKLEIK; 1.3e+06
AB367 (antibody, V domains shown, Full-length humanized antibody made in HEK 293-6E; also called hMAK199VH.1b/hMAK199VL.2a) VH: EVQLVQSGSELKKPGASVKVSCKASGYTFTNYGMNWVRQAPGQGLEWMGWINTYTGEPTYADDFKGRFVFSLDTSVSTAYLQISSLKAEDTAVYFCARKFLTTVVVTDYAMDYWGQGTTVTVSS VL: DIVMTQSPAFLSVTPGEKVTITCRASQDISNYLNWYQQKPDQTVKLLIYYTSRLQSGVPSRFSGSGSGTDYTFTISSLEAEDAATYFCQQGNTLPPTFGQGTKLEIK; 1e+06
AB354 (antibody, V domains shown, Full-length humanized antibody made in HEK 293-6E; also called hMAK199VH.1/hMAK199VL.2) VH: EVQLVQSGSELKKPGASVKVSCKASGYTFTNYGMNWVRQAPGQGLEWMGWINTYTGEPTYADDFKGRFVFSLDTSVSTAYLQISSLKAEDTAVYYCARKFLTTVVVTDYAMDYWGQGTTVTVSS VL: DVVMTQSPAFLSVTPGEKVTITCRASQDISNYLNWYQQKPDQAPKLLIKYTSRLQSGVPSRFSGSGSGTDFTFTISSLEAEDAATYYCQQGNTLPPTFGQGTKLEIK; 2e+06
AB351 (antibody, V domains shown, Full-length humanized antibody made in HEK 293-6E; also called hMAK199VH.1/hMAK199VL.1) VH: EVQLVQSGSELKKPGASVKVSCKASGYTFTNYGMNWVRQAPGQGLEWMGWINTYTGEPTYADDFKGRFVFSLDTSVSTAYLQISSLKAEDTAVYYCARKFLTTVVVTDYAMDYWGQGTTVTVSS VL: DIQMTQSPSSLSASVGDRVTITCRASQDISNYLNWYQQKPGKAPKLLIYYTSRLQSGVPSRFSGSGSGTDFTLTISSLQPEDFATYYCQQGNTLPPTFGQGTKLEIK; 2e+06

Any idea what its kon is? The binder is AB376 (antibody, V domains shown, Full-length humanized antibody made in HEK 293-6E; also called hMAK199VH.2a/hMAK199VL.1a) VH: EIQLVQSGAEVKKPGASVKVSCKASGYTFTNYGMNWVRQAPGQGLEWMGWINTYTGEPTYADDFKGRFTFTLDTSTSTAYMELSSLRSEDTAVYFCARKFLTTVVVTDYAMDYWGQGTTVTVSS VL: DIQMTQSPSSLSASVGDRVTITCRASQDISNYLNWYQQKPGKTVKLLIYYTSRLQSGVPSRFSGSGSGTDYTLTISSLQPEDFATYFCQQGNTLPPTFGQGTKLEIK 1.1e+06

Which value of kon has been reported for AB366 (antibody, V domains shown, Full-length humanized antibody made in HEK 293-6E; also called hMAK199VH.1b/hMAK199VL.2) VH: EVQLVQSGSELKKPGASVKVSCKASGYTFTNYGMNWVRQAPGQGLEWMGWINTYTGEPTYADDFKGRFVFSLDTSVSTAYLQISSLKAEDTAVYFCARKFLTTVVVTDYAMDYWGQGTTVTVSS VL: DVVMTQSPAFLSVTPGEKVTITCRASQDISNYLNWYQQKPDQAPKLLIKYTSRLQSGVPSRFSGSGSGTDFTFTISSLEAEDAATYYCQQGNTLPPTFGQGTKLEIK in the records? 1.6e+06

Consider the binder shown here: AB368 (antibody, V domains shown, Full-length humanized antibody made in HEK 293-6E; also called hMAK199VH.1b/hMAK199VL.2b) VH: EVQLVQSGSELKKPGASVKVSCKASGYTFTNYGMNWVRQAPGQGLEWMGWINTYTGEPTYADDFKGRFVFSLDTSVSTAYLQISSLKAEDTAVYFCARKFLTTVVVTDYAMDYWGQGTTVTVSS VL: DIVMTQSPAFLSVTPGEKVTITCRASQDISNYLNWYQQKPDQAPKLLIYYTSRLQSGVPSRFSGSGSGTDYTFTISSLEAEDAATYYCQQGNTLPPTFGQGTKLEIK What is its recorded kon? 1.1e+06

# get_value(readout='kon', item= AB357 (antibody, V domains shown, Full-length humanized antibody made in HEK 293-6E; also called hMAK199VH.1a/hMAK199VL.1) VH: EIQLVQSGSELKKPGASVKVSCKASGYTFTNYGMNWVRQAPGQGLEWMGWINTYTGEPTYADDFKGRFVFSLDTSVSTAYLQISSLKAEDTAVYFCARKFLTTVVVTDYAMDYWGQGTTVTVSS VL: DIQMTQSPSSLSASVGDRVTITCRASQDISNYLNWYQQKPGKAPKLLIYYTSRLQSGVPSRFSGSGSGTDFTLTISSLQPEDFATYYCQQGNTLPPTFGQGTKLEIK ) 1.9e+06
